# Tested on: E31 (patient-derived glioblastoma stem cells of proneural subtype)
# procedure summary: surviving fraction (nuclei count normalised to DMSO); higher = more cells surviving (less toxic)
# condition: 3000 nM; exposure time: 72 h
experimental endpoint: surviving fraction

Some compounds with recorded surviving fraction:
input_smiles=Cn1ncnc1[C@H]1c2n[nH]c(=O)c3cc(F)cc(c23)N[C@@H]1c1ccc(F)cc1 result=0.207
input_smiles=Nc1ccn([C@@H]2O[C@H](CO)[C@@H](O)[C@@H]2O)c(=O)n1 result=0.126
input_smiles=OC[C@H]1NC[C@H](O)[C@@H](O)[C@@H]1O result=0.988

# ---- query compound ----
**Query** Query for E31: what surviving fraction does the record show for CC(C)(C)C1CCN(C(=O)n2ncc(C(O)(c3ccccc3)c3ccccc3)n2)CC1 ?
**Result** 0.823

* * *

# Tested on: FT3469 (normal neural stem cell line)
# procedure summary: surviving fraction (nuclei count normalised to DMSO); higher = more cells surviving (less toxic)
# condition: 111.1 nM; exposure time: 72 h
Counter-ions that a name gives are not always drawn.
experimental endpoint: surviving fraction
Returns: the value as a bare number; no unit string appended.

Some molecules with recorded surviving fraction:
molecule="CC(NCCC(c1ccccc1)c1ccccc1)c1ccccc1 (stereo not drawn) [Fendiline hydrochloride]" measured_number=1.11
molecule="N=C(N)c1ccc(-c2ccc(-c3ccc(C(=N)N)cc3)o2)cc1 [Furamidine dihydrochloride]" measured_number=0.949
molecule=C[C@H]1O[C@@H](O[C@H]2[C@@H](O)C[C@H](O[C@H]3[C@@H](O)C[C@H](O[C@H]4CC[C@@]5(C)[C@H](CC[C@@H]6[C@@H]5C[C@@H](O)[C@]5(C)[C@@H](C7=CC(=O)OC7)CC[C@]65O)C4)O[C@@H]3C)O[C@@H]2C)C[C@H](O)[C@@H]1O measured_number=0.686

**Query** Can you look up the measured surviving fraction of C[C@H]1Oc2cc(cnc2N)-c2c(nn(C)c2C#N)CN(C)C(=O)c2ccc(F)cc21 for me?
**Result** 0.981

**Query** Can you look up the measured surviving fraction of Nc1ccc(-c2ccc3ncc4ccc(=O)n(-c5cccc(C(F)(F)F)c5)c4c3c2)cn1 for me?
**Result** 0.685

**Query** Can you look up the measured surviving fraction of OC[C@H]1NC[C@H](O)[C@@H](O)[C@@H]1O for me?
**Result** 1.02

**Query** Can you look up the measured surviving fraction of CC(=O)OC[C@H]1O[C@@H]([S-])[C@H](OC(C)=O)[C@@H](OC(C)=O)[C@@H]1OC(C)=O.CCP(CC)CC.[Au+] for me?
**Result** 0.76

**Query** Can you look up the measured surviving fraction of CCCCCCCCCCCCCCCC[N+](C)(C)CCN(Cc1ccc(OC)cc1)c1ncccn1 [Thonzonium bromide] for me?
**Result** 0.955

* * *

# Tested on: E34 (patient-derived glioblastoma stem cells of proneural subtype)
# procedure summary: phenotypic distance (Euclidean, principal components) from DMSO controls (arbitrary units); higher = stronger morphological change
# condition: 3000 nM; exposure time: 72 h
Structures can show the parent of a compound that is named as a salt.
Class definitions on phenotypic distance: bottom bin = under 1, middle bin = from 1 up to 3, top bin = 3 and over

molecule="CC(C)(Oc1ccc(C2CC2(Cl)Cl)cc1)C(=O)O (stereo not given) [Ciprofibrate]" category="middle bin"

Shifting focus to the molecule that follows.
**Query** Class? Entry: C=CC(=O)Nc1cc(Nc2nccc(-c3cn(C)c4ccccc34)n2)c(OC)cc1N(C)CCN(C)C [Osimertinib mesylate]
**Result** middle bin

* * *

# Tested on: E34;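 further: cell Painting imaging in 384-well plates, CellProfiler features reduced to at least 20 principal components, Euclidean distance versus same-plate DMSO vehicle wells (0.1% v/v), median over six images per well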
# procedure summary: phenotypic distance (Euclidean, principal components) from DMSO controls (arbitrary units); higher = stronger morphological change
# condition: 12.3 nM; exposure time: 72 h
Where a name gives a salt, the structure may show the parent alone.
# maps each entry to its phenotypic distance
Returns: the value as a bare number; no unit string appended.

compound="COC(=O)C1=C(C)NC(C)=C(C(=O)OCC(C)C)C1c1ccccc1[N+](=O)[O-] (stereo not drawn)" system_under_test=E34 experimental_endpoint="phenotypic distance" measured_number=0.511
compound="CN1[C@@H]2CC[C@H]1CC(OC(=O)c1c[nH]c3ccccc13)C2 (stereo partly drawn) [3-Tropanyl-indole-3-carboxylate hydrochloride]" system_under_test=E34 experimental_endpoint="phenotypic distance" measured_number=0.577

# ---- query compound ----
**Query** Can you look up the measured phenotypic distance of CCCCCCCCCCCCCC(=O)O[C@@H]1[C@@H](C)[C@@]2(O)[C@@H](C=C(CO)C[C@]3(O)C(=O)C(C)=C[C@@H]23)[C@@H]2C(C)(C)[C@]12OC(C)=O [Phorbol 12-myristate 13-acetate] for me?
**Result** 4.21

* * *

# Tested on: FT3469
# procedure summary: surviving fraction (nuclei count normalised to DMSO); higher = more cells surviving (less toxic)
# condition: 37 nM; exposure time: 72 h
# maps each entry to its surviving fraction
Returns: the value as a bare number; no unit string appended.

**Query** Can you look up the measured surviving fraction of CC[n+]1c(/C=C/C=C2/N(C)c3ccccc3C2(C)C)sc2ccccc21 for me?
**Result** 0.696

* * *

# Tested on: E13 (patient-derived glioblastoma stem cells of classical subtype)
# procedure summary: surviving fraction (nuclei count normalised to DMSO); higher = more cells surviving (less toxic)
# condition: 37 nM; exposure time: 72 h
Counter-ions that a name gives are not always drawn.
experimental endpoint: surviving fraction
Returns: the value as a bare number; no unit string appended.

Some molecules with recorded surviving fraction:
molecule="C/C(=C\\c1csc(C)n1)[C@@H]1C[C@@H]2O[C@]2(C)CCC[C@H](C)[C@H](O)[C@@H](C)C(=O)C(C)(C)[C@@H](O)CC(=O)N1 [Ixabepilone]" measured_number=0.271
molecule=O=C(CCBr)N1CCN(C(=O)CCBr)CC1 measured_number=1.02
molecule="CC1(C)S[C@@H]2[C@H](NC(=O)Cc3ccccc3)C(=O)N2[C@H]1C(=O)O [Benzylpenicillin sodium]" measured_number=1.07

**Query** Query for E13: what surviving fraction does the record show for Cc1ccc(NC(=O)c2ccc3c(c2)OCCO3)cc1NC(=O)c1ccc2nc(OCCN3CCCC3)ccc2c1 ?
**Result** 0.421

**Query** Query for E13: what surviving fraction does the record show for CCOC(=O)OC(C)OC(=O)[C@@H]1N2C(=O)[C@@H](NC(=O)[C@H](N)c3ccccc3)[C@H]2SC1(C)C (some centres not stated) [Bacampicillin hydrochloride] ?
**Result** 1.03

**Query** Query for E13: what surviving fraction does the record show for C[C@H]1Oc2cc(cnc2N)-c2c(nn(C)c2C#N)CN(C)C(=O)c2ccc(F)cc21 ?
**Result** 1.08

**Query** Query for E13: what surviving fraction does the record show for CC(=O)O[C@@]12CO[C@@H]1C[C@H](O)[C@@]1(C)C(=O)[C@H](O)C3=C(C)[C@@H](OC(=O)[C@H](O)[C@@H](NC(=O)OC(C)(C)C)c4ccccc4)C[C@@](O)([C@@H](OC(=O)c4ccccc4)[C@H]21)C3(C)C ?
**Result** 0.23

**Query** Query for E13: what surviving fraction does the record show for CC(C)CC(=O)N[C@H](C(=O)N[C@H](C(=O)N[C@@H](CC(C)C)[C@@H](O)CC(=O)N[C@@H](C)C(=O)N[C@@H](CC(C)C)[C@@H](O)CC(=O)O)C(C)C)C(C)C ?
**Result** 0.987

**Query** Query for E13: what surviving fraction does the record show for CC1CNc2c(cccc2S(=O)(=O)N[C@@H](CCCNC(=N)N)C(=O)N2CC[C@@H](C)C[C@@H]2C(=O)O)C1 (some centres not stated) ?
**Result** 1.06

**Query** Query for E13: what surviving fraction does the record show for CCn1c(-c2nonc2N)nc2cnc(Oc3cccc(NC(=O)c4ccc(OCCN5CCOCC5)cc4)c3)cc21 ?
**Result** 0.992

**Query** Query for E13: what surviving fraction does the record show for COC(=O)C1=C(C)NC(C)=C(C(=O)OCC(C)C)C1c1ccccc1[N+](=O)[O-] (configuration not stated) ?
**Result** 0.924

**Query** Query for E13: what surviving fraction does the record show for CC(C)C[C@H](NC(=O)[C@H](Cc1ccccc1)C[C@@H](O)[C@H](Cc1ccccc1)NC(=O)OC(C)(C)C)C(=O)N[C@@H](Cc1ccccc1)C(N)=O ?
**Result** 1.01

**Query** Query for E13: what surviving fraction does the record show for CCC(=O)OCC(=O)[C@@]1(OC(=O)CC)[C@H](C)C[C@H]2[C@H]3[C@H]([C@@H](O)C[C@@]21C)[C@@]1(C)C=CC(=O)C=C1C[C@H]3Cl [Alclometasone dipropionate] ?
**Result** 0.926

**Query** Query for E13: what surviving fraction does the record show for COc1cc(OC)c(C(=O)CCCN2CCCC2)c(OC)c1 [Buflomedil hydrochloride] ?
**Result** 1.19

**Query** Query for E13: what surviving fraction does the record show for C=CC(=O)Nc1cc(Nc2nccc(-c3cn(C)c4ccccc34)n2)c(OC)cc1N(C)CCN(C)C [Osimertinib mesylate] ?
**Result** 0.978

**Query** Query for E13: what surviving fraction does the record show for COc1nc(C)nc(Cl)c1NC1=NCCN1 ?
**Result** 0.886

**Query** Query for E13: what surviving fraction does the record show for COC(=O)Nc1nc2cc(C(=O)c3ccc(F)cc3)ccc2[nH]1 ?
**Result** 1.11

Data provenance: the supplement of paper PMC13207355
